# STUDY_TARGET: IKZF3-GFP (Homo sapiens, UniProt Q96SW2+Q9UKT9)
# Construct: expressed in transfected cells; host or cells: HEK293A (Invitrogen R70507), lentiviral transduction with pLenti6-IKZF3-GFP-Ires-RFP, blasticidin selection
# Sequence (Q9UKT9 whole entry): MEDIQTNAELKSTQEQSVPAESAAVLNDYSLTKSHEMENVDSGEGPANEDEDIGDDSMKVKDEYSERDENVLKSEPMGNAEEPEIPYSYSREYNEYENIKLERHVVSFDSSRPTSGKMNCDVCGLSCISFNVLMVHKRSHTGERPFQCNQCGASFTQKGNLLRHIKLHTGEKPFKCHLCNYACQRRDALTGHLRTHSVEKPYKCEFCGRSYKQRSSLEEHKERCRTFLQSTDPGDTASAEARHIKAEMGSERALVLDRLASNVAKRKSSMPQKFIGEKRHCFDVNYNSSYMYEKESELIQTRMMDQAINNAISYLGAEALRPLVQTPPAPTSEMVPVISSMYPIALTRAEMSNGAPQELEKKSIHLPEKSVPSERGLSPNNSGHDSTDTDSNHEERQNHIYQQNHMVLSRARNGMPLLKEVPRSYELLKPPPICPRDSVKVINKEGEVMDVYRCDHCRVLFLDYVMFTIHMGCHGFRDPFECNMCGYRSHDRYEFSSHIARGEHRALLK
# Sequence (Q96SW2 whole entry): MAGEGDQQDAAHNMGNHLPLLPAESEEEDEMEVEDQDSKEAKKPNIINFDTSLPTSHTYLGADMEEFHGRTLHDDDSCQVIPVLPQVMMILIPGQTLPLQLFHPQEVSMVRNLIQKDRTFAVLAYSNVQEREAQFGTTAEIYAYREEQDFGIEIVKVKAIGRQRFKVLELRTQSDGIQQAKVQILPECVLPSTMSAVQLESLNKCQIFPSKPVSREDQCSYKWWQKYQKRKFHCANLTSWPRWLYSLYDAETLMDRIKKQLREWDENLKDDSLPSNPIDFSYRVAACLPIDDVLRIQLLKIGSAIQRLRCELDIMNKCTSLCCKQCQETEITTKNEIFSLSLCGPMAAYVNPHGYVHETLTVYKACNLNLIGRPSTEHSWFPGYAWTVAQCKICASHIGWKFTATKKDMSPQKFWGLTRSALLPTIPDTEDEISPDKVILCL
# Sequence (Q16531 whole entry partner): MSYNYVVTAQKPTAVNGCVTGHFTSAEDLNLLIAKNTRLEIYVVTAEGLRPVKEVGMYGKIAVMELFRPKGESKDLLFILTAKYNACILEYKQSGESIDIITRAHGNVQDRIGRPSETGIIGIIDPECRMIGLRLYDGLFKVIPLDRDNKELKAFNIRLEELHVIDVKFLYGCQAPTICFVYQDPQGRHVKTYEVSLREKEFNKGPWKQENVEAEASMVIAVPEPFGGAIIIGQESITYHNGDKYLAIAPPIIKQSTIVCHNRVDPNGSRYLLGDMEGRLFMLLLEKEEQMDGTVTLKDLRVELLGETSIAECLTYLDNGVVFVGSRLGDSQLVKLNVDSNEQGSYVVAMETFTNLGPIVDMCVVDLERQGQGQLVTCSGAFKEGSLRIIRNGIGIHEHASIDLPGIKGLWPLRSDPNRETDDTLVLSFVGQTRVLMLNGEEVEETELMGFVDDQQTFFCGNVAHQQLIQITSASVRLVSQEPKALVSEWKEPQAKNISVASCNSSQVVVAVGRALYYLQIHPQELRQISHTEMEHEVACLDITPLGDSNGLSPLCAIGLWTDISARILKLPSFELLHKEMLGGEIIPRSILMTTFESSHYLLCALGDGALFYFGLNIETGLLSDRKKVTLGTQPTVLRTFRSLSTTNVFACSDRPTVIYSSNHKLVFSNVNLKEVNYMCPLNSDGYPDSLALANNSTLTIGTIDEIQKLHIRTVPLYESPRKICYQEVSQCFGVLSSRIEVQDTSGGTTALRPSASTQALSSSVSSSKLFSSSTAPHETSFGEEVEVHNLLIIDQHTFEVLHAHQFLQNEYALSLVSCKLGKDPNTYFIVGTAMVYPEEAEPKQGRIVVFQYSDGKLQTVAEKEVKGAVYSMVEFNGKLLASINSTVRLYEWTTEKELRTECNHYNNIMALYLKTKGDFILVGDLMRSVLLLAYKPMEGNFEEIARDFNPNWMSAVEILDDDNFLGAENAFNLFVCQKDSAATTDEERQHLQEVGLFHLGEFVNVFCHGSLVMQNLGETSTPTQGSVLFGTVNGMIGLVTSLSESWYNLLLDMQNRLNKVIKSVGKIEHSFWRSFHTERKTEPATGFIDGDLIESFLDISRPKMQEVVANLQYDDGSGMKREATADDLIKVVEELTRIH
# ASSAY_PROTOCOL: IKZF3-GFP protein abundance flow cytometry assay in HEK293A cells
# Type: cell-based
# CONDITION_PARAMETERS: HEK293A IKZF3-GFP-iresRFP cells, 24 h; % protein remaining at maximum degradation
# Procedure: BTK-GFP and IKZF3-GFP protein abundance flow cytometry assay in HEK293A cells: Degradation of BTK or IKZF3 was measured in HEK293A cells (Invitrogen R70507) expressing either BTK-GFP and RFP or IKZF3-GFP and RFP from a stably integrated bicistronic BTK-GFP-iresRFP or IKZF3-GFP-iresRFP construct, respectively. Reduction of the GFP signal measured by flow cytometry served as readout for BTK or IKZF3 degradation after degrader treatment. […] Iii) Quantitative BTK-GFP and IKZF3-GFP Abundance Measurements […]
VALUE_KIND: IKZF3 deg Amax (%)

| COMPOUND | STUDY_TARGET | VALUE_KIND | UNITS_TEXT | REPORTED_MEASUREMENT |
| --- | --- | --- | --- | --- |
| COc1ccc(C(=O)N2CCC3(CCN(Cc4ccc(-c5cc6c(-c7cc(F)cc(NC(=O)c8ccc(C(C)(C)O)cc8F)c7C)ncnc6[nH]5)cc4)CC3)CC2)cc1N1CCC(=O)NC1=O [Compound 9] | IKZF3-GFP (Homo sapiens, UniProt Q96SW2+Q9UKT9) | IKZF3 deg Amax | % | 99.1 |
| COc1ccc(C(=O)NCCN2CCOC3(CCN(Cc4ccc(-c5cc6c(-c7cc(F)cc(NC(=O)c8ccc(C(C)(C)O)cc8F)c7C)ncnc6[nH]5)cc4)CC3)C2)cc1N1CCC(=O)NC1=O [Compound 39] | IKZF3-GFP (Homo sapiens, UniProt Q96SW2+Q9UKT9) | IKZF3 deg Amax | % | 94.5 |
| COc1ccc(C(=O)N2CCC3(CCN(CCc4ccc(-c5cc6c(-c7cc(F)cc(NC(=O)c8ccc(C(C)(C)O)cc8F)c7C)ncnc6[nH]5)cc4)CC3)CC2)cc1N1CCC(=O)NC1=O [Compound 31] | IKZF3-GFP (Homo sapiens, UniProt Q96SW2+Q9UKT9) | IKZF3 deg Amax | % | 99.8 |
| Cc1c(NC(=O)c2ccc(C(C)(C)O)cc2F)cc(F)cc1-c1ncnc2[nH]c(-c3ccc(CN4CCC5(CC4)CCN(C(=O)c4ccc(F)c(N6CCC(=O)NC6=O)c4)CC5)cc3)cc12 [Compound 14] | IKZF3-GFP (Homo sapiens, UniProt Q96SW2+Q9UKT9) | IKZF3 deg Amax | % | 100.2 |
| Cc1c(NC(=O)c2ccc(C(C)(C)O)cc2F)cc(F)cc1-c1ncnc2[nH]c(-c3ccc(COC4CCN(CCC5CCN(C(=O)c6ccc(F)c(N7CCC(=O)NC7=O)c6)CC5)CC4)cc3)cc12 [Compound 6] | IKZF3-GFP (Homo sapiens, UniProt Q96SW2+Q9UKT9) | IKZF3 deg Amax | % | 100.8 |
| Cc1ccc(C(=O)N2CCC3(CCN(Cc4ccc(-c5cc6c(-c7cc(F)cc(NC(=O)c8ccc(C(C)(C)O)cc8F)c7C)ncnc6[nH]5)cc4)CC3)CC2)cc1N1CCC(=O)NC1=O [Compound 27] | IKZF3-GFP (Homo sapiens, UniProt Q96SW2+Q9UKT9) | IKZF3 deg Amax | % | 102.2 |
| Cc1ccc(C(=O)N2CCC3(CCN(CCc4ccc(-c5cc6c(-c7cc(F)cc(NC(=O)c8ccc(C(C)(C)O)cc8F)c7C)ncnc6[nH]5)cc4)CC3)CC2)cc1N1CCC(=O)NC1=O [Compound 5] | IKZF3-GFP (Homo sapiens, UniProt Q96SW2+Q9UKT9) | IKZF3 deg Amax | % | 103.3 |
| COc1ccc(C(=O)N2CCC(OC3CCN(Cc4ccc(-c5cc6c(-c7cc(F)cc(NC(=O)c8ccc(C(C)(C)O)cc8F)c7C)ncnc6[nH]5)cc4)CC3)CC2)cc1N1CCC(=O)NC1=O [Compound 8] | IKZF3-GFP (Homo sapiens, UniProt Q96SW2+Q9UKT9) | IKZF3 deg Amax | % | 103.3 |
| COc1ccc(C(=O)N2CCC(OC3CCN(CCc4ccc(-c5cc6c(-c7cc(F)cc(NC(=O)c8ccc(C(C)(C)O)cc8F)c7C)ncnc6[nH]5)cc4)CC3)CC2)cc1N1CCC(=O)NC1=O [Compound 34] | IKZF3-GFP (Homo sapiens, UniProt Q96SW2+Q9UKT9) | IKZF3 deg Amax | % | 94.7 |
| Cc1cc(F)c(C(=O)NCCCCCNCc2ccc(-c3cc4c(-c5cc(F)cc(NC(=O)c6ccc(C(C)(C)O)cc6F)c5C)ncnc4[nH]3)cc2)cc1N1CCC(=O)NC1=O [Compound 29] | IKZF3-GFP (Homo sapiens, UniProt Q96SW2+Q9UKT9) | IKZF3 deg Amax | % | 98.6 |
| COc1ccc(C(=O)NCCN2CCC3(CC2)CCN(Cc2ccc(-c4cc5c(-c6cc(F)cc(NC(=O)c7ccc(C(C)(C)O)cc7F)c6C)ncnc5[nH]4)cc2)CC3)cc1N1CCC(=O)NC1=O [Compound 44] | IKZF3-GFP (Homo sapiens, UniProt Q96SW2+Q9UKT9) | IKZF3 deg Amax | % | 99.7 |
| COc1ccc(C(=O)N2CCN(C(=O)N3CCN(Cc4ccc(-c5cc6c(-c7cc(F)cc(NC(=O)c8ccc(C(C)(C)O)cc8F)c7C)ncnc6[nH]5)cc4)CC3)CC2)cc1N1CCC(=O)NC1=O [Compound 22] | IKZF3-GFP (Homo sapiens, UniProt Q96SW2+Q9UKT9) | IKZF3 deg Amax | % | 99.7 |
| COc1ccc(C(=O)N2CCC3(CC2)CCN(C(C)(C)Cc2ccc(-c4cc5c(-c6cc(F)cc(NC(=O)c7ccc(C(C)(C)O)cc7F)c6C)ncnc5[nH]4)cc2)CC3)cc1N1CCC(=O)NC1=O [Compound 20] | IKZF3-GFP (Homo sapiens, UniProt Q96SW2+Q9UKT9) | IKZF3 deg Amax | % | 93.3 |

The measured values listed here are drawn from patent US12441733B2.
